biological target: p110δ/p85α (Homo sapiens (Human)); experiment: PI3K δ inhibition assay (TLC lipid kinase or HTRF)
metric: IC50

Consider the worked cases shown below.
CC(=O)Nc1cccc(-c2nn(Cc3cc4ccccc4nc3N3CCCC3)c3ncnc(N)c23)c1 [Compound 27] = > 1000 nM
CCC(Nc1ncnc2[nH]cnc12)c1cc2ccccc2nc1N1CCCC1 (stereo not drawn) [Compound 53] = 100 to 1000 nM

// moving on: another record for IC50
Task item: # lookup: p110δ/p85α (Homo sapiens (Human)) IC50, key = Nc1ccnc2c1c(-c1cccc(O)c1)nn2Cc1cc2ccccc2nc1-c1cccnc1 [Compound 77]
Reply: < 100 nM

----------
target: p110δ/p85α (Homo sapiens (Human)); test: PI3K δ inhibition assay (TLC lipid kinase or HTRF)
pIC50: −log10 of the molar value.
Give measured pIC50 for each item. Keep answers brief.

Nc1ncnc2c1c(-c1cc(O)cc(F)c1)nn2Cc1cc2ccccc2nc1-c1cccnc1 = > 7.00
Nc1ncnc2c1c(-c1cccc(O)c1)nn2Cc1cc2ccccc2nc1-c1ccccc1 = > 7.00
CC(=O)Nc1nc2ccc(-c3nn(Cc4cc5ccccc5nc4-c4ccccc4)c4ncnc(N)c34)cc2s1 = > 7.00

Task item: Please report pIC50 for the following molecule: `Cn1c(=O)c(Cn2nc(-c3cc(O)cc(F)c3)c3c(N)ncnc32)cc2ccccc21`
Reply: > 7.00

----------
Consider the following IC50 values measured on p110γ (Homo sapiens (Human), UniProt P48736).
Sequence (P48736 whole entry): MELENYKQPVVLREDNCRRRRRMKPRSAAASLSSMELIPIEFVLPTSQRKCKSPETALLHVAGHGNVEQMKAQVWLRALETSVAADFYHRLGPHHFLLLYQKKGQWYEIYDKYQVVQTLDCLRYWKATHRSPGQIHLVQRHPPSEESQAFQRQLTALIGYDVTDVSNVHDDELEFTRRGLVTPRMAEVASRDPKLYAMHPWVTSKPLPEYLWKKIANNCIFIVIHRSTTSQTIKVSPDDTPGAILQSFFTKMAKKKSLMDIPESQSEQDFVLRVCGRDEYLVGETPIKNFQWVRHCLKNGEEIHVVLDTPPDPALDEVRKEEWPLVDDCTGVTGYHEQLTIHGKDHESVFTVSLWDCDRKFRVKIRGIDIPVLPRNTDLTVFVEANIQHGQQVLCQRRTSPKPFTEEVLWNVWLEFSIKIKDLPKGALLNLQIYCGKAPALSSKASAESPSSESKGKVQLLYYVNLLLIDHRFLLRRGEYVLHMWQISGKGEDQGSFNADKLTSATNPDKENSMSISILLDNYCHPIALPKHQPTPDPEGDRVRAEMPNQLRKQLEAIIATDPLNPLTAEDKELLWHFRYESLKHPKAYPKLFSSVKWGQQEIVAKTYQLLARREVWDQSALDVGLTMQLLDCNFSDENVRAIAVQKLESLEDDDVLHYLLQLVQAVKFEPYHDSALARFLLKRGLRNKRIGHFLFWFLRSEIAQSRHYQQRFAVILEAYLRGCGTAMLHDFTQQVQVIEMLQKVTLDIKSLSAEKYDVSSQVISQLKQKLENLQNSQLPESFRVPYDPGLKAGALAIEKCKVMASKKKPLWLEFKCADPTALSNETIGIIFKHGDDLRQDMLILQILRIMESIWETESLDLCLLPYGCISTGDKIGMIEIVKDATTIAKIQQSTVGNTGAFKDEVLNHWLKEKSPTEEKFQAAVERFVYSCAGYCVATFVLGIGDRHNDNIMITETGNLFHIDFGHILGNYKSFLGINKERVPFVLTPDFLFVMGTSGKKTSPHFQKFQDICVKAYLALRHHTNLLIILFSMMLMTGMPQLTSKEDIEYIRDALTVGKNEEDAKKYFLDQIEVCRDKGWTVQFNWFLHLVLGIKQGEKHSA

Before answering, review these 3 worked examples.
CN1CCN(c2nc3ccccc3cc2Cn2nc(-c3ccc4cc(N)sc4c3)c3c(N)ccnc32)CC1 = < 100 nM
Cc1ccccc1-c1nc2ccccc2cc1Cn1nc(-c2ccc3nc(N)ncc3c2)c2c(N)ncnc21 = < 100 nM
CNc1ncnc2c1c(-c1cc(O)cc(F)c1)nn2Cc1cc2ccccc2nc1N(C)CCN1CCOCC1 = > 1000 nM

For every item below, please supply its IC50.
1. Nc1ncnc2c1c(-c1cn[nH]c1)nn2Cc1cc2ccccc2nc1-c1ccccc1
2. Cc1ccccc1-c1nc2ccccc2nc1Cn1nc(-c2cccc(O)c2)c2c(N)ncnc21
3. CCN1CCN(c2nc3ccccc3cc2Cn2nc(-c3cc(O)cc(F)c3)c3c(N)ncnc32)CC1
4. Cc1ccccc1-c1nc2ccccc2cc1Cn1nc(I)c2c(N)ncnc21
5. C[C@@H](O)C#Cc1nn(Cc2nc3ccccc3nc2N2CCCC2)c2ncnc(N)c12
6. Nc1nc2ccc(-c3nn(Cc4cc5ccccc5nc4-c4ccccc4)c4ncnc(N)c34)cc2s1
7. Nc1nc2ccc(-c3nn(Cc4cc5ccccc5nc4-c4ccccc4C(F)(F)F)c4ncnc(N)c34)cc2[nH]1
8. Nc1ncnc2c1c(-c1cc(O)cc(F)c1)nn2Cc1cc2ccccc2nc1-c1ccccc1

Reply:
100 to 1000 nM
> 1000 nM
> 1000 nM
100 to 1000 nM
> 1000 nM
< 100 nM
< 100 nM
< 100 nM

Hi team, please reply with IC50 for each item in this list.
1. CCn1c(=O)c(Cn2nc(-c3cc(O)cc(F)c3)c3c(N)ncnc32)nc2ccccc21
2. Cc1ccccc1-c1nc2c(C)cccc2cc1Cn1nc(I)c2c(N)ncnc21
3. CN1CCN(c2nc3ccccc3cc2CNc2ncnc3[nH]cnc23)CC1
4. Nc1ccnc2c1c(-c1cccc(O)c1)nn2Cc1cc2ccccc2nc1-c1cccnc1
5. Nc1nc2ccc(-c3nn(Cc4cc5ccccc5nc4-c4ccccc4F)c4ncnc(N)c34)cc2s1

Reply:
1: > 1000 nM; 2: < 100 nM; 3: > 1000 nM; 4: > 1000 nM; 5: < 100 nM

----------
molecular target: p110δ/p85α (Homo sapiens (Human), UniProt O00329); assay: PI3K δ inhibition assay (TLC lipid kinase or HTRF)
Sequence (O00329 whole entry): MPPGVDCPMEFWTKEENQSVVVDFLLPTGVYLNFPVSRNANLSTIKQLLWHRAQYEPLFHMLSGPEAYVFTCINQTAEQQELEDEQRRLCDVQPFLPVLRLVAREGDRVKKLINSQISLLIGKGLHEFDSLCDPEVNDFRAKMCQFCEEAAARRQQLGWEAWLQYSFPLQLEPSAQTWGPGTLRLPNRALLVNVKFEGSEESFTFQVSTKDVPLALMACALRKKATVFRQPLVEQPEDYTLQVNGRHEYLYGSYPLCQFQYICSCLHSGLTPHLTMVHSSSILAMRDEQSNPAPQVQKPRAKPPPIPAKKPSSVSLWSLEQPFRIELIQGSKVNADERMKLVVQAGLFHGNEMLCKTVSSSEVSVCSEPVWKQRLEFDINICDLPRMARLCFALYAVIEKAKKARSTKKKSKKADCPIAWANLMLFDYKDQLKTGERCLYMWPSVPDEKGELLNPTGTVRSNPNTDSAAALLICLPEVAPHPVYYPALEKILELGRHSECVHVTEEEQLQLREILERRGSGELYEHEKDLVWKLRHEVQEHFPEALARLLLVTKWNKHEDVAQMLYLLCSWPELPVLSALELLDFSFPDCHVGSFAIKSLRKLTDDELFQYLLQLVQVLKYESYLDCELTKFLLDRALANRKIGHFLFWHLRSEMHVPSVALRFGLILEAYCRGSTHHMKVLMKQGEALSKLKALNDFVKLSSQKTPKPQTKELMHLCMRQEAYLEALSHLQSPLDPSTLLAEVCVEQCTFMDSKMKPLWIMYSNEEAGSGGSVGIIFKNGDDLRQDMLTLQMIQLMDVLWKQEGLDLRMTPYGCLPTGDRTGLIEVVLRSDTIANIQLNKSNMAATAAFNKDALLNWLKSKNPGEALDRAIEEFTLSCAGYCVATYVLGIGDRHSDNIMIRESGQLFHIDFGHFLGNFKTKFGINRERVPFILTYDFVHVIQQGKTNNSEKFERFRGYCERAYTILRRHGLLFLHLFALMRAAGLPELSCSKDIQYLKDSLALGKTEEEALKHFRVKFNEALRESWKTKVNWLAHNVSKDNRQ
Sequence (P27986 whole entry partner): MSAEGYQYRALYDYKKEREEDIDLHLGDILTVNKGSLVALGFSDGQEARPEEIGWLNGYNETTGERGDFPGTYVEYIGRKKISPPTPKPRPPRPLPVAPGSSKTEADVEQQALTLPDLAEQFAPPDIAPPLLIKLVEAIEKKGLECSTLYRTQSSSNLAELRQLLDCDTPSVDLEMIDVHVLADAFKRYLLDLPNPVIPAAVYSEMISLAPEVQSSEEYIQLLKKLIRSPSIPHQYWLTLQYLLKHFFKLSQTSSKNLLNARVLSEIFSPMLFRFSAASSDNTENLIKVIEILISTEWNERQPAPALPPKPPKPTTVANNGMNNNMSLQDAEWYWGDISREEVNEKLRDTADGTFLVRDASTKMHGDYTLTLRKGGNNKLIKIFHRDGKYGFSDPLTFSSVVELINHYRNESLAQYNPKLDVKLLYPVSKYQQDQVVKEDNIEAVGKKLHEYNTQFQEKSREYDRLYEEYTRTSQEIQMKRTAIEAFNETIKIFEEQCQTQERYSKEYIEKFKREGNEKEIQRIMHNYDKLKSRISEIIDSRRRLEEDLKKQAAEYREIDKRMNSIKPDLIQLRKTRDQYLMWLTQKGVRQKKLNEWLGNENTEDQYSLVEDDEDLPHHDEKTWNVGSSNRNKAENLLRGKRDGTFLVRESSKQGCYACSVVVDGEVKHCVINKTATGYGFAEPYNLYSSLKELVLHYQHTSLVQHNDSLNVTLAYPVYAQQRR
metric: IC50

CC(=O)Nc1nc2ccc(-c3nn(Cc4cc5ccccc5nc4N4CCOCC4)c4ncnc(N)c34)cc2s1 = < 100 nM
Nc1ncnc2c1c(-c1cccc(O)c1)nn2Cc1cc2ccccc2nc1-c1ccccc1F = 100 to 1000 nM
CC(C)N(C)c1nc2ccccc2cc1Cn1nc(-c2cc(O)cc(F)c2)c2c(N)ncnc21 = < 100 nM
Nc1ncnc2c1c(-c1cccc(O)c1)nn2Cc1nc2ccccc2nc1N1CCCC1 = < 100 nM
CCn1c(=O)c(Cn2nc(-c3cccc(O)c3)c3c(N)ncnc32)cc2ccccc21 = 100 to 1000 nM

Hi, could you look up IC50 for each item in my list?
1. C[C@@H](O)C#Cc1nc2ccccc2nc1Cn1nc(C#C[C@@H](C)O)c2c(N)ncnc21
2. Nc1ncnc2c1c(-c1ccc3cc[nH]c3c1)nn2Cc1cc2ccccc2nc1N1CCCC1
3. CC(c1cc2ccccc2nc1-c1ccccc1)n1cnc2c(N)ncnc21 (centres unmarked)

Reply:
1: > 1000 nM; 2: < 100 nM; 3: > 1000 nM

----------
Kindly supply the reported IC50 values for the records listed here.
biological target: UniProt:P48736

# example entries with known answers
CC(Nc1ncnc2[nH]cnc12)c1cc2ccccc2nc1-c1ccccc1 (stereo not drawn) [Compound 93] = 100 to 1000 nM
Cc1ccccc1-c1nc2ccccc2n1CCn1nc(-c2cc(O)cc(F)c2)c2c(N)ncnc21 [Compound 127] = > 1000 nM
Cc1cccc2cc(Cn3nc(-c4cc(O)cc(F)c4)c4c(N)ncnc43)c(N3CCOCC3)nc12 [Compound 65] = < 100 nM
Nc1ncnc2c1c(-c1cccc(O)c1)nn2Cc1cc2ccccc2nc1-c1ccccc1F [Compound 91] = 100 to 1000 nM
Cc1ccccc1-c1nc2ccccc2cc1Cn1nc(-c2ccc3nc(N)[nH]c3c2)c2c(N)ncnc21 [Compound 182] = < 100 nM

Task item: Provide measured IC50 value, entry: CC(C)N1CCN(c2nc3ccccc3cc2Cn2nc(-c3cc(O)cc(F)c3)c3c(N)ncnc32)CC1 [Compound 69]
Reply: > 1000 nM

----------
So I've got a bunch of compounds here, and I need their pIC50 values.
target: p110δ/p85α (Homo sapiens (Human), UniProt O00329); experiment: PI3K δ inhibition assay (TLC lipid kinase or HTRF)
pIC50: −log10 of the molar value.

Nc1ccc2cc(-c3nn(Cc4cc5ccccc5nc4-c4ccccc4F)c4ncnc(N)c34)ccc2n1 = > 7.00

Batch request: pIC50 for each of the following compounds.
1. CC(C)Oc1nc2ccccc2cc1Cn1nc(-c2cc(O)cc(F)c2)c2c(N)ncnc21
2. NC(=O)/C=C/c1nn(Cc2cc3ccccc3nc2-c2ccccc2F)c2ncnc(N)c12
3. CCC(c1cc2ccccc2nc1N1CCN(C)CC1)n1cnc2c(N)ncnc21 (centres unmarked)
4. CC(=O)Nc1nc2ccc(-c3nn(Cc4cc5ccccc5nc4CCN4CCN(C)CC4)c4ncnc(N)c34)cc2s1
5. Nc1cc(-c2nn(Cc3cc4ccccc4nc3-c3ccccc3)c3ncnc(N)c23)ccn1
6. Nc1ncc2cc(-c3nn(Cc4cc5ccccc5nc4-c4ccccc4F)c4ncnc(N)c34)ccc2n1

Reply:
["> 7.00", "6.00 to 7.00", "6.00 to 7.00", "> 7.00", "< 6.00", "> 7.00"]

Task item: Answer briefly: pIC50 recorded on p110δ/p85α (Homo sapiens (Human), UniProt O00329) for CCC(c1cc2ccccc2nc1N1CCCC1)n1cnc2c(N)ncnc21 (centres unmarked)
Reply: < 6.00

----------
biological target: p110β/p85α (Homo sapiens, UniProt P42338); test: PI3K β inhibition assay (TLC lipid kinase or HTRF); type: biochemical; conditions: read-out: PI3K β IC50
Sequence (P42338 whole entry, looked up): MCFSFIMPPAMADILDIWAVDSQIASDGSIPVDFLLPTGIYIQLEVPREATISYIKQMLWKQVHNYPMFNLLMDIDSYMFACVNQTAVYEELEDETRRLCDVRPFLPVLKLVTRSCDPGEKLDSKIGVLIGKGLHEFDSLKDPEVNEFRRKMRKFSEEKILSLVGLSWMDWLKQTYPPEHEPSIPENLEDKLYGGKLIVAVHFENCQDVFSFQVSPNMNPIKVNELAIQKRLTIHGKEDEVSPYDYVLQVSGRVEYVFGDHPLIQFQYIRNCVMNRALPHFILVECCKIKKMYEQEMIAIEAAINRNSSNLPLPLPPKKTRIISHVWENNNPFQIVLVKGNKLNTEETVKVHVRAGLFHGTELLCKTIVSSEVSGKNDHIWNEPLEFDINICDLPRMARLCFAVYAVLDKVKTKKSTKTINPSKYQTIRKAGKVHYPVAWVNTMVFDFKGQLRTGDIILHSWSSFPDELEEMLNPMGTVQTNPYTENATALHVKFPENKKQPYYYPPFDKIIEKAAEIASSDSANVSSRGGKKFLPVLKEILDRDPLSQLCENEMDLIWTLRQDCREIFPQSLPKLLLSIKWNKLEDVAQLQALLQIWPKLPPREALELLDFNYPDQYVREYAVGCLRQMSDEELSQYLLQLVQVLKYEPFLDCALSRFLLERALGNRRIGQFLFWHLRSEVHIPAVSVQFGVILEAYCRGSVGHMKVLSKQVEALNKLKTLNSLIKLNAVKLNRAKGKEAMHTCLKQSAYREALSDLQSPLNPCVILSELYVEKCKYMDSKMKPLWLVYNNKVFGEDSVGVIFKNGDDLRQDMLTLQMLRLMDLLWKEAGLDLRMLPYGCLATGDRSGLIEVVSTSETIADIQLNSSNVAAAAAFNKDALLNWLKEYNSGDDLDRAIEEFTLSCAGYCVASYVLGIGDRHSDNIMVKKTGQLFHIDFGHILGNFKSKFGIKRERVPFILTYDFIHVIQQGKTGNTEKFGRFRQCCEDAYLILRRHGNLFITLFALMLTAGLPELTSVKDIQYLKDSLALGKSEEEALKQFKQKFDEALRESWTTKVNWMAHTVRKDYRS
Could you please report measured IC50 for the items listed next?

Would you please look over these solved cases?
Cc1cccc2cc(Cn3nc(-c4cccc(O)c4)c4c(N)ncnc43)c(N3CCOCC3)nc12 [Compound 66] = 100 to 1000 nM
Nc1ncnc2c1c(-c1cc(O)cc(F)c1)nn2Cc1cc2ccccc2nc1NC1CC1 [Compound 29] = > 1000 nM

State recorded IC50 for all listed molecules.
1. CC(c1cc2ccccc2nc1N1CCN(C)CC1)n1nc(-c2cc(O)cc(F)c2)c2c(N)ncnc21 (centres unmarked) [Compound 73]
2. Nc1ncnc2c1c(-c1cccc(O)c1)nn2Cc1cc2ccccc2nc1N1CCOCC1 [Compound 64]
3. Cc1ccccc1-c1nc2ccccc2nc1Cn1nc(-c2cccc(O)c2)c2c(N)ncnc21 [Compound 108]
4. C=Cc1nn(Cc2cc3ccccc3nc2-c2ccccc2F)c2ncnc(N)c12 [Compound 190]
5. CCc1nc2ccccc2cc1Cn1nc(-c2cc(O)cc(F)c2)c2c(N)ncnc21 [Compound 97]
6. Nc1ncnc2ccc(-c3nn(Cc4cc5ccccc5nc4-c4ccccc4F)c4ncnc(N)c34)cc12 [Compound 138]

Reply:
1. < 100 nM
2. > 1000 nM
3. > 1000 nM
4. > 1000 nM
5. 100 to 1000 nM
6. > 1000 nM
